SYSTEM_UNDER_TEST: T1, SK-OV-3细胞上的CD73 (human, UniProt P21589 27-549)
T1 construct: whole, on cells; Endogenous CD73 of the human CD73-positive cell line SK-OV-3; also called 人CD73阳性细胞; SK-OV-3细胞表面的CD73
T1 sequence (looked up): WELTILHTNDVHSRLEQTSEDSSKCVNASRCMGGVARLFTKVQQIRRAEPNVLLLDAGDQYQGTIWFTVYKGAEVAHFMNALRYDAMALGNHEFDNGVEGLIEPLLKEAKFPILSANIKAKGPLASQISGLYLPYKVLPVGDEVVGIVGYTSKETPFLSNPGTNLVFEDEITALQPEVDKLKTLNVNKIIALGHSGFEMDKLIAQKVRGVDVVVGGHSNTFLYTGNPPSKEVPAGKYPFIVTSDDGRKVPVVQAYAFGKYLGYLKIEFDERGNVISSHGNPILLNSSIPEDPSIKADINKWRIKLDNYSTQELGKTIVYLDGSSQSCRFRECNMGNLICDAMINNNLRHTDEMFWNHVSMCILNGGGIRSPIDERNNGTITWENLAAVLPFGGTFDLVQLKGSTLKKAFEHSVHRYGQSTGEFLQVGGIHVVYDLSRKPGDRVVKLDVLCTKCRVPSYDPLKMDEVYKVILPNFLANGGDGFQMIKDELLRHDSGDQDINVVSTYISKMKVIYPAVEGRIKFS
EXPERIMENT: flow cytometry on SK-OV-3 cells, Anti-hFC-APC
MEASURED_PROPERTY: binding result

>>> measurement("137-9 (antibody, IgG1, V domains shown, also called 人源化CD73抗体; CQ137人源化抗体; not shown: kappa constant region) VH: QVQLVQSGAEVKKPGSSVKVSCKASGYSFTGYYIHWVRQAPGQGLEWMGRINPYNGATTYNQNFKDRVTITVDKSTSTAYMELSSLRSEDTAVYYCARFHYGAPDLWGQGTLVTVSS VL: DIQMTQSPSSLSASVGDRVTITCKASQDINTYLTWYQQKPGKAPKTLIYRANILVDGVPSRFSGSGSGTDFTLTISSLQPEDFATYYCLQYDAFPLTFGGGTKVEIKR")
"binds"
>>> measurement("137-5 (antibody, IgG1, V domains shown, also called 人源化CD73抗体; CQ137人源化抗体; not shown: kappa constant region) VH: QVQLVQSGAEVKKPGSSVKVSCKASGYSFTGYYIHWVRQAPGQGLEWMGRINPYNGATTYNQNFKDRVTITVDKSTSTAYMELSSLRSEDTAVYYCARFHYGAADYWGQGTLVTVSS VL: DIQMTQSPSSLSASVGDRVTITCKASQDINTYLTWYQQKPGKAPKTLIYRANILVDGVPSRFSGSGSGTDFTLTISSLQPEDFATYYCLQYNEFPLTFGGGTKVEIKR")
"binds"
>>> measurement("137-4 (antibody, IgG1, V domains shown, also called 人源化CD73抗体; CQ137人源化抗体; not shown: kappa constant region) VH: QVQLVQSGAEVKKPGSSVKVSCKASGYSFTGYYIHWVRQAPGQGLEWMGRINPYNGATTYNQNFKDRVTITVDKSTSTAYMELSSLRSEDTAVYYCARFHYGAVDYWGQGTLVTVSS VL: DIQMTQSPSSLSASVGDRVTITCKASQDINTYLTWYQQKPGKAPKTLIYRANILVDGVPSRFSGSGSGTDFTLTISSLQPEDFATYYCLQYEEFPLTFGGGTKVEIKR")
"binds"

Ref: patent CN113045659A
